# Test summary: AUC in CD1 (ICR) mouse at 10 mg/kg, po
# Type: ADME, organism-based
# Design: dose 10 mg/kg, route oral
# Test conditions: plasma
Endpoint label: AUC (ng·h/mL)

Nc1ncc(-c2cnn(CCO)c2)c2scc(-c3ccc(NC(=O)Nc4cccc(F)c4)cc3)c12
18600
Cn1cc(-c2cnc(N)c3c(-c4ccc(NC(=O)Nc5cccc(F)c5)cc4)csc23)cn1
44000
CCCn1cc(-c2cnc(N)c3c(-c4ccc(NC(=O)Nc5cccc(F)c5)cc4)csc23)cn1
5260
COc1ccc(NC(=O)Nc2ccc(-c3csc4c(-c5cnn(C)c5)cnc(N)c34)cc2)cc1
5220

P = Cc1cccc(NC(=O)Nc2ccc(-c3csc4c(-c5cnn(C)c5)cnc(N)c34)cc2)c1
Q = Cc1cccc(NC(=O)Nc2ccc(-c3csc4ccnc(N)c34)cc2)c1
R = C[C@@H](O)Cn1cc(-c2cnc(N)c3c(-c4ccc(NC(=O)Nc5cccc(F)c5)cc4)csc23)cn1
Ask | # rank_down: sort by AUC, max first API: response body holds the labels in the requested order.
Reply | R, P, Q
(R: 14600 ng·h/mL, P: 5640 ng·h/mL, Q: 450 ng·h/mL)

* * *

# Test summary: Protein binding in mouse
# Format: ADME, organism-based
# Test conditions: plasma, read-out: PB
Endpoint label: fraction unbound

Ask | Can you share its fraction unbound? I mean this molecule: Nc1ncc(-c2cnn(CCO)c2)c2scc(-c3ccc(NC(=O)Nc4cccc(F)c4)cc3)c12 [ILORASERTIB]
Reply | < 0.01

* * *

# Test summary: Plasma clearance in rat
# Format: ADME, organism-based
Endpoint label: clearance

Ask | Can you share its clearance? I mean this molecule: Nc1ncc(-c2cnn(CCO)c2)c2scc(-c3ccc(NC(=O)Nc4cccc(F)c4)cc3)c12 [ILORASERTIB]
Reply | < 5 mL/min/kg

* * *

# Test summary: Oral bioavailability in CD1 (ICR) mouse at 10 mg/kg
# Type: ADME, organism-based
# Test conditions: in vivo
Endpoint label: bioavailability (%)

I = C[C@@H](O)Cn1cc(-c2cnc(N)c3c(-c4ccc(NC(=O)Nc5cccc(F)c5)cc4)csc23)cn1
II = Cn1cc(-c2cnc(N)c3c(-c4ccc(NC(=O)Nc5cccc(F)c5)cc4)csc23)cn1
Ask | When I and II are compared, which has the higher number for bioavailability? The response must carry the label of the picked entry.
Reply | II
(II: 78%, I: 42%)

P = CCCn1cc(-c2cnc(N)c3c(-c4ccc(NC(=O)Nc5cccc(F)c5)cc4)csc23)cn1
Q = Cc1cccc(NC(=O)Nc2ccc(-c3csc4ccnc(N)c34)cc2)c1
Ask | # compare bioavailability for P vs Q ; return the one with the smaller value The response must carry the label of the picked entry.
Reply | Q

* * *

# Test summary: Volume of distribution at steady state in mouse
# Assay type: ADME, organism-based
# Test conditions: in vivo, read-out: Vdss
Endpoint label: Vd (L/kg)
Number only, in L/kg; omit the unit.

Ask | Can you share its Vd? I mean this compound: Nc1ncc(-c2cnn(CCO)c2)c2scc(-c3ccc(NC(=O)Nc4cccc(F)c4)cc3)c12 [ILORASERTIB]
Reply | 0.4

* * *

Reported values of EC15 for individual entries
# Target under test: Aurora kinase B (Homo sapiens, UniProt Q96GD4)
# Sequence (Q96GD4 whole entry): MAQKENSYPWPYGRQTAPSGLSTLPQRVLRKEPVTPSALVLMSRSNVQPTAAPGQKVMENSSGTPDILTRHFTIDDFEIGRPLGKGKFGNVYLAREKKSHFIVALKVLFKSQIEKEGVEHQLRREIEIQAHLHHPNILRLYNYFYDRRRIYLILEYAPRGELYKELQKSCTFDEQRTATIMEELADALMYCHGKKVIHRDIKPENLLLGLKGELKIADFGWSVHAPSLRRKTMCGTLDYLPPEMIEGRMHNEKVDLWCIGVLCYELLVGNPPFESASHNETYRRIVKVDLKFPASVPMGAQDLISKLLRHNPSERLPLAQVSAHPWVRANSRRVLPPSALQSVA
# Test conditions: NCI-H1229

Worked cases, answers included:
Nc1ncc(-c2cnn(CCCN3CC[C@@H](O)C3)c2)c2scc(-c3ccc(NC(=O)Nc4cccc(F)c4)cc3)c12
< 1 nM
Cn1cc(-c2cnc(N)c3c(-c4ccc(NC(=O)Nc5ccccc5F)cc4)csc23)cn1
< 30 nM

// switching to the query molecule
Ask | Give recorded EC15 with Aurora kinase B (Homo sapiens, UniProt Q96GD4) for the following molecule: Nc1ncc(-c2cnn(CCN3CCCCC3)c2)c2scc(-c3ccc(NC(=O)Nc4cccc(F)c4)cc3)c12
Reply | < 3 nM

* * *

# Test summary: Oral bioavailability in CD1 (ICR) mouse at 10 mg/kg
# Type: ADME, organism-based
# Test conditions: in vivo
Endpoint label: bioavailability (%)

COc1ccc(NC(=O)Nc2ccc(-c3csc4c(-c5cnn(C)c5)cnc(N)c34)cc2)cc1
44
Nc1ncc(-c2cnn(CCO)c2)c2scc(-c3ccc(NC(=O)Nc4cccc(F)c4)cc3)c12 [ILORASERTIB]
47
Cc1cccc(NC(=O)Nc2ccc(-c3csc4c(-c5cnn(C)c5)cnc(N)c34)cc2)c1
59
